Quick reference for pIC50 among some compounds
# measured-target: full length active recombinant SYK enzyme (Homo sapiens, UniProt P43405)
# Construct: full length active recombinant SYK enzyme (Millipore, Calif.)
# method-description: Inhibition of Syk tyrosine phosphorylation activity (LANCE TR-FRET kinase assay)
pIC50: −log10 of the molar value.

As a guide, the following entries are already answered.
CC(C)[C@@H](Nc1nc(Nc2ccc3[nH]ncc3c2)c(C(N)=O)c(=O)[nH]1)C(N)=O
> 9.00
COCCOc1cccc(Nc2nc(N[C@H](CC(C)C)C(N)=O)[nH]c(=O)c2C(N)=O)c1
8.00 to 9.00
Cc1cccc(Nc2nc(N[C@@H](C(N)=O)C(C)C)[nH]c(=O)c2C(N)=O)c1
8.00 to 9.00
NC(=O)c1c(O)nc(NC2CCCCC2N)nc1NC1CC1 (stereo not shown)
< 6.00
CC[C@@H](Nc1nc(Nc2cccc(OC)c2)c(C(N)=O)c(=O)[nH]1)C(N)=O
8.00 to 9.00

For the next question, use this compound.
Q: Recorded pIC50 for "CC(C)C[C@@H](Nc1nc(Nc2cccc(-c3ccccn3)c2)c(C(N)=O)c(=O)[nH]1)C(N)=O" , please?
Result: 8.00 to 9.00

* * *

Quick reference for IC50 among some compounds
# measured-target: full length active recombinant SYK enzyme (Homo sapiens, UniProt P43405)
# Construct: full length active recombinant SYK enzyme (Millipore, Calif.); purchased Millipore
# method-description: Inhibition of Syk tyrosine phosphorylation activity (LANCE TR-FRET kinase assay)
# Format: biochemical
# Protocol: This example illustrates methods for evaluating the compounds of the invention, along with results obtained for such assays. The in vitro and in vivo human Syk activities of the inventive compounds can be determined by various procedures known in the art, such as a test for their ability to inhibit the activity of human plasma Syk. […] SYK tyrosine phosphorylation activity is measured using the LANCE™ Technology developed by Perkin Elmer Life and Analytical Sciences (Boston, Mass.). […]

As a guide, the following entries are already answered.
COc1nc(NC[C@H](C)N)nc(Nc2cc(C)cc(C)c2)c1C(N)=O
100 to 1000 nM
CC(C)[C@@H](Nc1nc(Nc2ccc3ncccc3c2)c(C(N)=O)c(=O)[nH]1)C(N)=O
1 to 10 nM
CNC(=O)[C@@H](CC(C)C)Nc1nc(Nc2cccc(-c3ccccn3)c2)c(C(N)=O)c(=O)[nH]1
> 1000 nM
CC(C)C[C@@H](Nc1nc(Nc2ccc3ncccc3c2)c(C(N)=O)c(=O)[nH]1)C(N)=O
< 1 nM
CNC(=O)[C@@H](CC(C)C)Nc1nc(Nc2ccc3[nH]ncc3c2)c(C(N)=O)c(=O)[nH]1
100 to 1000 nM

Q: Recorded IC50 for "COc1nc(N[C@H](C)C(N)=O)nc(Nc2cc(C)cc(C)c2)c1C(N)=O" , please?
Result: 100 to 1000 nM

Q: Let us now turn to COc1nc(NC2CCCCC2N)nc(Nc2cc(C)cc(C)c2)c1C(N)=O (centres unmarked)
Result: 10 to 100 nM

Q: Let us now turn to "COc1nc(Nc2ccc(N3CCN(C(C)=O)CC3)cc2)nc(Nc2cccc(C)c2)c1C(N)=O"
Result: > 1000 nM

* * *

Quick reference for IC50 among some molecules
# measured-target: full length active recombinant SYK enzyme (Homo sapiens, UniProt P43405)
# Construct: full length active recombinant SYK enzyme (Millipore, Calif.)
# method-description: Inhibition of Syk tyrosine phosphorylation activity (LANCE TR-FRET kinase assay)

COc1nc(N[C@@H]2CCCC[C@@H]2N)nc(Nc2cccc(-n3nccn3)c2)c1C(N)=O
10 to 100 nM
CC(C)C[C@@H](Nc1nc(Nc2ccc(-n3cccn3)cc2)c(C(N)=O)c(=O)[nH]1)C(N)=O
1 to 10 nM
CC[C@@H](Nc1nc(Nc2ccc3c(c2)OCO3)c(C(N)=O)c(=O)[nH]1)C(N)=O
1 to 10 nM
CC[C@@H](Nc1nc(Nc2ccc3cn[nH]c3c2)c(C(N)=O)c(=O)[nH]1)C(N)=O
< 1 nM
CC(C)C[C@@H](Nc1nc(Nc2ccc(OC(F)(F)F)cc2)c(C(N)=O)c(=O)[nH]1)C(N)=O
1 to 10 nM
CCOc1nc(N[C@@H](C(N)=O)C(C)C)nc(Nc2cc(C)cc(C)c2)c1C(N)=O
100 to 1000 nM
CC(C)C[C@@H](Nc1nc(Nc2ccc(-c3cccnc3)cc2)c(C(N)=O)c(=O)[nH]1)C(N)=O
1 to 10 nM

For the next question, use this molecule.
Q: Recorded IC50 for "CC[C@@H](Nc1nc(Nc2cccc(C)c2)c(C(N)=O)c(=O)[nH]1)C(N)=O" , please?
Result: 1 to 10 nM

Attribution: patent US20130317029A1
